- MEASURED_ON: HCV NS3 protease domain (Hepatitis C virus genotype 1a)
- Construct: immobilization of the NS3 protease domain on streptavidin coated beads; made in house; host or cells: E. coli
- Sequence (P27958 1027-1208): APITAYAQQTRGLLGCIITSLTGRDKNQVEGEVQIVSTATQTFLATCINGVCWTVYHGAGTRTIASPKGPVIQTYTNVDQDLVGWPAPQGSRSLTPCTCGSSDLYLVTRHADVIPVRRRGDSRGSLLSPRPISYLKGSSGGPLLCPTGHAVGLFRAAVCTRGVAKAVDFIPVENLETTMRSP
- PROTOCOL_NOTES: FAC-MS (frontal affinity chromatography with in-line MS) binding to immobilized NS3
Ends that are not written are not given here.
Task for the reader: assign each of the following substances its reported Kd.
Answers are plain numbers, in µM.

VIVGRIVL [VIVGRIVL]    88
VVIVGRI [VVIVGRI]    103
KKGSCVIVGRIVLSGK [Peptide V23C]    4.8
IVGRIVL [IVGRIVL]    103
KKGSFVIVGRIVLSGK [Peptide V23F]    3.7

Could you now consider this next substance?
Task: Endpoint output: Kd of KKGSLVIVGRIVLSGK [Peptide V23L] . Value?
Result: 5.1

----------
- MEASURED_ON: NS3 protease (Hepatitis C virus genotype 1a, UniProt P27958)
- Sequence (P27958 1027-1207): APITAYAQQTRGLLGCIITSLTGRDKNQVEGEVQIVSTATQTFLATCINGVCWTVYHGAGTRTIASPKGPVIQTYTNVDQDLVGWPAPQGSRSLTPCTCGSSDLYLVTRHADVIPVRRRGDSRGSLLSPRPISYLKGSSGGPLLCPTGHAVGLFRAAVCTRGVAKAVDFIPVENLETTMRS
- PROTOCOL_NOTES: Rates of NS3 in the presence of short NS4A peptides
- Assay type: biochemical, HCV
- PROTOCOL_CONDITIONS: substrate 5A-pNA subsaturating; 66 to 360 μM peptide
Ends that are not written are not given here.
MEASURED_ENDPOINT: log10(Rate) (log10 of the value in µmol/min/mg)
Log10 applied to Rate; unit prior to transform: µmol/min/mg.

VIVGRIVL [VIVGRIVL]    0.25
VGRIVL    0.23
KKGSVVIVGRIVLSGK [Wild-type, KKGSVVIVGRIVLSGK, reference compound]    1.57

// each substance listed below needs its log10(Rate)
1. VVIVGRI [VVIVGRI]
2. IVGRIVL [IVGRIVL]

Result:
1: 0.27; 2: 0.26

Cited source for all entries: patent US20030176689A1
